# targetOrTestSystem: T1, human CC chemokine receptor 4 (CCR4) (human, UniProt P51679 1-360)
# T1 construct: whole, on cells; also called human CCR4; CD194
# T1 sequence (looked up): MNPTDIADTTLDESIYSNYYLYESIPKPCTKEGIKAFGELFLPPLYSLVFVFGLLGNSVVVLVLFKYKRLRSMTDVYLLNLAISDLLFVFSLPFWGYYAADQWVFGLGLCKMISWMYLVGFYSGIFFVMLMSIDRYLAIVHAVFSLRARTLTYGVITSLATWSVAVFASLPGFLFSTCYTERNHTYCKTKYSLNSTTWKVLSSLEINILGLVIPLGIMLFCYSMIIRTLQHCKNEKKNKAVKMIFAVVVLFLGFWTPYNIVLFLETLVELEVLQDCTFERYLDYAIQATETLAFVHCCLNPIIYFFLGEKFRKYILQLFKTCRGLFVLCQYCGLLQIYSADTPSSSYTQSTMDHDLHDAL
# assayComment: competition in flow cytometry on CCRF-CEM cells: scFv titrated against 50 nM Alexa647-labelled MDC-SNAP; remaining MDC-SNAP signal (Alexa 647)
property: IC50 (read off the curve)

Prompt: Requested field: IC50 (read off the curve). Item: 803 scFv (scFv, not shown: small tags and cut ends, Expressed in TG1 bacteria; also called scFv 803; antibody 803 (single chain form)) scFv: QVQLVQSGAEVKKPGSSVKVSCKASGGTFSSYAISWVRQAPGQGLEWMGGIIPIFGTANYAQKFQGRVTMTRDTSTSTVYMELSSLRSEDTAVYYCARRRGAKFDYWGQGTLVTVSSKLSGSASAPKLEEGEFSEARVSYVLTQPPSASGTPGQSVTISCSGSTSNIGSHYVVWYQQLPGTAPRLLIYRNHQRPSGVPDRLSGSKSGTSASLAIGGLRSEDEADYYCAVWDDTLSGWVFGGGTKLTVL
Completion: ~0.2 nM
